Target: T1, human BCMA (human, UniProt Q02223 1-184)
T1 construct: whole, on cells; the cell line is named under assay; also called TNFRSF17; CD269
T1 sequence (looked up): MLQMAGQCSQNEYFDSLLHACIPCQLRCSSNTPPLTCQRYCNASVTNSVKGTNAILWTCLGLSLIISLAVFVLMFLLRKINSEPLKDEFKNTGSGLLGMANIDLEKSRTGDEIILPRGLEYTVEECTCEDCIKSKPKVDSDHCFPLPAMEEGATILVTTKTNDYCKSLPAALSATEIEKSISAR
Assay: flow cytometry, NCI-H929 cells, Flag-tagged VH single domain, anti-tag secondary antibody
Measure name: Maximum MFI

Some solved cases for reference:
PR004560, PR001046 VH-derived single-domain variant 1046-R2-10F1 (VHH, Tested as VH single domain with Flag and His tags; not shown: Flag and His tags) VHH: EVQLVETGGGLIQPGGSLRLSCAASGFTVSDAYMTWVRQAPGKGLEWVSVIFSGGNTYVSDSVKGRFTISRDNAKNTLYLQMNSLRAEDTALYYCARRNYDQTRGTDVFDIWGQGTMVTVSS | 1300
PR004574, PR001046 VH-derived single-domain variant 1046-R2-9E5 (VHH, Tested as VH single domain with Flag and His tags; not shown: Flag and His tags) VHH: EVQLVETGGGLIQPGGSLRLSCAASGFTVSDAYMTWVRQAPGKGLEWVSVIFSGGRTYYSDSVKGRFTISRDNAKNTLYLQMNSLRAEDTALYYCARRNYDQTRGTDVFDIWGQGTMVTVSS | 1300
PR004567, PR001046 VH-derived single-domain variant 1046-R2-5E1 (VHH, Tested as VH single domain with Flag and His tags; not shown: Flag and His tags) VHH: EVQLVETGGGLIQPGGSLRLSCAASGFTVSDSYMTWVRQAPGKGLEWVSVIFSGGKTYVADSVKGRFTISRDNAKNTLYLQMNSLRAEDTALYYCARRNYDQTRGTDVFDIWGQGTMVTVSS | 1440
PR001046 VH single-domain molecule (original molecule) (VHH, not the HCAb form; not shown: Flag and His tags) VHH: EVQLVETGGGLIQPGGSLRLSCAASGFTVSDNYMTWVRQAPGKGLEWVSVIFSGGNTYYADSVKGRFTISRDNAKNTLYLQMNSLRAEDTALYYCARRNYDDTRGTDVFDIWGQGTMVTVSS | 764
PR004570, PR001046 VH-derived single-domain variant 1046-R2-6D6 (VHH, Tested as VH single domain with Flag and His tags; not shown: Flag and His tags) VHH: EVQLVETGGGLIQPGGSLRLSCAASGFTVSDAYMTWVRQAPGKGLEWVSVIFSGGRTYYADSVKGRFTISRDNAKNTLYLQMNSLRAEDTALYYCARRNYDQTRGTDVFDIWGQGTMVTVSS | 1360

Reported Maximum MFI, binder PR004569, PR001046 VH-derived single-domain variant 1046-R2-5H2 (VHH, Tested as VH single domain with Flag and His tags; not shown: Flag and His tags) VHH: EVQLVETGGGLIQPGGSLRLSCAASGFTVSDSYMTWVRQAPGKGLEWVSVIFSGGRTYYSDSVKGRFTISRDNAKNTLYLQMNSLRAEDTALYYCARRNYDQTRGTDVFDIWGQGTMVTVSS : ____ 1420

Entry under review: PR004568, PR001046 VH-derived single-domain variant 1046-R2-5H1 (VHH, Tested as VH single domain with Flag and His tags; not shown: Flag and His tags) VHH: EVQLVETGGGLIQPGGSLRLSCAASGFTVSDAYMTWVRQAPGKGLEWVSVIFSGGRTYVADSVKGRFTISRDNAKNTLYLQMNSLRAEDTALYYCARRNYDDTRGTDVFDIWGQGTMVTVSS . Reported Maximum MFI? 1440

Fill blank: measured Maximum MFI of the binder PR004571, PR001046 VH-derived single-domain variant 1046-R2-6F1 (VHH, Tested as VH single domain with Flag and His tags; not shown: Flag and His tags) VHH: EVQLVETGGGLIQPGGSLRLSCAASGFTVSDSYMTWVRQAPGKGLEWVSVIFSGGKTYYSDSVKGRFTISRDNAKNTLYLQMNSLRAEDTALYYCARRNYDQTIGTDVFDIWGQGTMVTVSS is ____. 1380
